Sourced from paper PMC10786891

Hi there, I'd appreciate the recorded Kd for every entry that follows.
Target or test system: T1, EsCas13d, nuclease-dead (Eubacterium siraeum, UniProt B0MS50, R295A;H300A;R849A;H854A)
T1 sequence: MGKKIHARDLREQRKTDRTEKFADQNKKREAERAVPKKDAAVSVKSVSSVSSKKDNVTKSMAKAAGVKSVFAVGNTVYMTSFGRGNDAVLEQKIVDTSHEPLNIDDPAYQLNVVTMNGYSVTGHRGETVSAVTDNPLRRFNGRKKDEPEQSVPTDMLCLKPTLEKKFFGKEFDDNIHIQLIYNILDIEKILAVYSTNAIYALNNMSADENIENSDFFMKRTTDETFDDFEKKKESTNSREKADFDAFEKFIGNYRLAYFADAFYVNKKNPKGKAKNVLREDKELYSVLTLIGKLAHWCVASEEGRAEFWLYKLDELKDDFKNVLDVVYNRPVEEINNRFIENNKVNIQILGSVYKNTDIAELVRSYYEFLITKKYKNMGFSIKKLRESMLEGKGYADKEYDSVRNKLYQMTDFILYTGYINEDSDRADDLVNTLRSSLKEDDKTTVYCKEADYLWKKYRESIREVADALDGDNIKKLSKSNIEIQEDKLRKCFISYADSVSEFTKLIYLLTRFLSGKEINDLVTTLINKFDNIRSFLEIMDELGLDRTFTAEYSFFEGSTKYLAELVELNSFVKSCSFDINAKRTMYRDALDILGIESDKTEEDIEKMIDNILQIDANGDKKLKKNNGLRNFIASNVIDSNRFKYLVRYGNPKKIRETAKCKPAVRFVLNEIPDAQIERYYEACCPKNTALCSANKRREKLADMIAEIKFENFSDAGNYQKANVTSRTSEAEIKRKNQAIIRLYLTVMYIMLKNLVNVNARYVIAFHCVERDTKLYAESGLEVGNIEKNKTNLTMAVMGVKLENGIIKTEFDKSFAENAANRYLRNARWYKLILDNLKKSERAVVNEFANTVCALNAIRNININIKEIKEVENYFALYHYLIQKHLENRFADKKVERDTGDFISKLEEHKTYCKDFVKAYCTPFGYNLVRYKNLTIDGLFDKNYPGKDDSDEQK
Experiment description: crRNA (strand 1, pre-loaded); Mg2+; 40 mM Tris-HCl pH 7.5, 150 mM NaCl, 6 mM MgCl2, 1 mM DTT, 0.1% Tween-20, 0.2 mg/ml BSA; 25 C; 10 min per concentration, then washed
Particulars: tags: His6-TwinStrep-SUMO cleaved; N-terminal SNAP kept (SNAP-Surface 488); label: 3' end held by stalled T7 RNA polymerase
Answers are plain numbers, in nM.

For the 2 binders below, give their Kd values.
1. target 1 C6G,A14C (mixed) RNA 1: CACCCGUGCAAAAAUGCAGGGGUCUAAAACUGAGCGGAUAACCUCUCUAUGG RNA 2: GGGAAUGGAUCCACAUCUACGAAUUCGUACCAUAGAGCGGUUAUCGGCUCACCGAGAUCGGAAGAGCACACGU
2. target 1 insA 3' of 6,insA 3' of 2 (mixed) RNA 1: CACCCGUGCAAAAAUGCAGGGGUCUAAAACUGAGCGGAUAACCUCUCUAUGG RNA 2: GGGAAUGGAUCCACAUCUACGAAUUCGUACCAUAGAGAGGUUAUCCAGCUCAACCGAGAUCGGAAGAGCACACGU

13.4
18.7
